# credit: PubChem BioAssay (NCI)

system: HS 578T breast; assay: NCI-60 one-dose screen, 48 h (100 = growth as untreated, 0 = no growth, -100 = all killed); settings: 10 µM
This is part of a sample that, as a whole, favours compounds with a hit. Of some 83,000 tested, about 20% had one in any assay.
recorded endpoint: growth (%)
State the answer as a number, implicitly in %.

See these solved cases before continuing.
compound: CC(=O)OCCO
growth, %: 115
//
compound: O=C(O)/C=C/C(=O)NCc1ccccc1
growth, %: 113
//
compound: CC(C)C(C#N)(C(C)C)C(C)C
growth, %: 106
//
compound: C=CCc1cc(C(C)=O)cc(OC)c1O
growth, %: 102

Requested field: growth. Item: O=C1NC(=O)C2C(=O)NC(=O)C1C21CCc2ccccc21 (stereo unspecified)
89

Item O=[N+]([O-])c1ccc(S(=O)(=O)NN=C2CCCCC2)cc1 has what recorded growth?
141

Given COc1ccc(C(O)c2ccccc2)cc1 (stereo unspecified) , state its recorded growth.
108

Form field: reported growth of CC1(C)S(=O)(=O)OCCOS1(=O)=O
106

Could you tell me which growth is on file for O=C(O)C(Cc1ccccc1)C(=O)O ?
104

What value of growth has been recorded for this entry: NC(=O)NC(=O)c1ccc(Cl)cc1
97.9

Given the compound CC(C)COC(=O)COC(=O)OCCOCCOC(=O)OCC(=O)OCC(C)C , what is its reported growth?
124

====

system: BT-549 breast; experiment: NCI-60 one-dose screen, 48 h (100 = growth as untreated, 0 = no growth, -100 = all killed); conditions: 10 µM
Compounds without any hit were thinned out: in the full panel of roughly 83,000, 20% have a hit.
recorded endpoint: growth (%)
Enter your answer as a number in %; do not include the unit.

Would you please look over these solved cases?
compound: O=[N+]([O-])c1ccccc1N=Nc1ccc(O)cc1O
val: 101
//
compound: NC(=O)N/N=C\c1ccco1
val: 94.9
//
compound: C#C[C@H]1CCCCCC1O (stereo partly drawn)
val: 113
//
compound: COc1cc2nc3cc([N+](=O)[O-])ccc3c(Cl)c2cc1OC
val: 51.3
//
compound: CNc1nc(NC)c2cn[nH]c2n1
val: 103

From here, focus on the item given below.
I'd like to know its growth. The compound in question is CCN(CC)c1ccc2nc3ccc(=[N+](CC)CC)cc-3oc2c1
48

====

test system: HOP-92 NSCLC; assay: NCI-60 one-dose screen, 48 h (100 = growth as untreated, 0 = no growth, -100 = all killed); conditions: 10 µM
Compounds without any hit were thinned out: in the full panel of roughly 83,000, 20% have a hit. Where a SMILES comes first, the peptide text is derived from it. Bridges are numbered along the chain shown (N, C = ends). [ ]: non-standard residue; d: D form. The star is where a group is joined. ξ: configuration not given here. ξNMePhe(4-NMe2) = CNC(Cc1ccc(N(C)C)cc1)C(=O)O; Picolinoyl(3-OH) = O=C(c1ncccc1O)*; ξPip(4-oxo) = O=C1CCNC(C(=O)O)C1; Phg = N[CH](C(=O)O)c1ccccc1; Abu = CC[CH](N)C(=O)O
recorded endpoint: growth (%)
# output: bare number, implied unit %

molecule: O=C(O)c1ccccc1NCc1ccco1
growth, %: 108

molecule: N/N=C(/Cc1ccccc1)NNC(N)=S
growth, %: 119

molecule: CC1(C)N=C(N)N=C(N)N1c1ccc(Cl)cc1
growth, %: 132

molecule: O=C1N(C[P+](c2ccccc2)(c2ccccc2)c2ccccc2)CCCN1C[P+](c1ccccc1)(c1ccccc1)c1ccccc1
growth, %: 79.5

molecule: O=C1OC(c2ccc(F)cc2)CC1CN1CCOCC1 (configuration not stated)
growth, %: 94.5

Need growth of CC(=O)OCCC(C)CCC=C(C)C (configuration not stated) , thanks.
98.8

What measured growth goes with CC(CN1CCCCC1)NC(=O)c1scnc1-c1ccccc1 (configuration not stated) ?
91.9

I would be grateful if you could share the reported growth for OC(c1ccccn1)C(O)c1ccccn1 (configuration not stated) .
98.9

What does the data say about its growth? Entry: OCCN(CCO)C(=S)S
109

growth lookup needed for CCOC(=O)CCCC(=O)OCC , thanks.
101

# query: growth of entry CSc1[nH]c(=O)ncc1F
116

Data request, read-out growth, for O=C(CCNNC(=O)c1ccncc1)NCc1ccccc1
97.8

Quick one: growth for c1c(-c2cc(C3CC3)[nH]n2)n[nH]c1C1CC1 ?
89

Can you look up the measured growth of CC1(C)S(=O)(=O)OCCOS1(=O)=O for me?
83.8

# query: growth of entry O=C(c1ccc(O)cc1)c1ccc(O)cc1
98

If you can, please state the reported growth value of O=C1NC(=O)C2C(=O)NC(=O)C1C21CCc2ccccc21 (configuration not stated) .
89.5

Report growth for c1cc2cccc3c4cccc5cccc(c(c1)c23)c54 please.
89.6

Look at this molecule and give its reported growth. Cc1ccc(/C=C2\SC(=S)N(c3ccc(F)cc3)C2=O)o1
87.6

Query (molecule): OCC(O)C(O)C(O)C(O)/C=N/O (configuration not stated) ; field requested: growth
74.8

Using the record for C[N+](C)=c1ccc2nc3c(cc(Nc4ccccc4)c4ccccc43)oc-2c1 , report its growth.
79.5

Endpoint output: growth of Nc1ccccc1C(=O)Nc1ccc(Cl)cc1Cl . Value?
67.2

Bench note: what growth did CC(=O)Cc1ccc(-c2ccccc2)cc1 show?
96.3

Query (molecule): CCOc1ccc(I)cc1 ; field requested: growth
90.3

Give the measured growth of COc1cccc(/C=N/NC(=S)NC2CC3CCC2C3)c1O (configuration not stated) .
55.5

So what's the measured growth for this one? CCOC(=O)C(CCC(C)C)C(=O)OCC
93.6

Would you kindly share the measured growth for Cc1cc2nc(CC(=O)c3cccc([N+](=O)[O-])c3)c(=O)[nH]c2cc1C ?
74.9

Please give the measured growth for this molecule: CCC1NC(=O)C(NC(=O)c2ncccc2O)C(C)OC(=O)C(c2ccccc2)NC(=O)C2CC(=O)CCN2C(=O)C(Cc2ccc(N(C)C)cc2)N(C)C(=O)C2CCCN2C1=O (configuration not stated) (tested in a mixture with another compound) ({Picolinoyl(3-OH)}-T[Abu]P[ξNMePhe(4-NMe2)][ξPip(4-oxo)][Phg]; ester 1-C; configuration not given here)
53.8
